- Target system: T1, His-tagged P3028 (human, also: His-tag, terminus and sequence not given here)
- T1 construct: in solution at 0.5 ug/mL over the peptide cards; found with anti-His-tag antibody and rabbit anti-mouse peroxidase (rampo); also called PGE73; not shown: His-tag
- T1 peptide: VFDEFKPLVEEPQNLIK
- Method description: PEPSCAN chip ELISA, His-P3028 in solution;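 also: score is the raw OD at 405 nm from peroxidase colour with ABTS, imaged by CCD camera before and after staining, with wells showing air bubbles set to zero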
No end group written: not given here.
Test readout: RAMPO Score
A complete answer gives the number followed by the unit.

Below, 5 binders whose answers are already recorded.
Noted for KKLDTFFVKLSLFTEY [SEQ ID NO 393] : its RAMPO Score reads 311 rampo score

RAMPO Score in this record for KKEDTFFVKLSLFTER [SEQ ID NO 285] : 528 rampo score

Sample KKLDTFFVKLSAFTER [SEQ ID NO 350] ; RAMPO Score observed: 462 rampo score

response.value for LKLDTFFVKLSLFTER [SEQ ID NO 274] (field: RAMPO Score) = 449 rampo score

The measured RAMPO Score associated with KKLDTFFVKISLFTER [SEQ ID NO 335] reads 415 rampo score

Continuing:
Looking up KKLDTFTVKLSLFTER [SEQ ID NO 12] , I found its RAMPO Score recorded as 517 rampo score

Given item RKLDTFFVKLSLFTER [SEQ ID NO 3] , the value recorded as its RAMPO Score is 523 rampo score

Query RKLDTFFVKLSLFTER [SEQ ID NO 279] yields RAMPO Score of 523 rampo score

Reported RAMPO Score ( KRLDTFFVKLSLFTER [SEQ ID NO 407] ) = 417 rampo score

Recorded result, KKLDTFFVKLSLNTER [SEQ ID NO 368] , RAMPO Score: 862 rampo score

The binder listed as KKLMTFFVKLSLFTER [SEQ ID NO 423] has a reported RAMPO Score of 384 rampo score

// KKLDTYFVKLSLFTER [SEQ ID NO 434] : RAMPO Score value = 364 rampo score
